- ASSAY_PROTOCOL: AUC in CD1 Beagle dog at 10 mg/kg, po
- Type: ADME, organism-based, Canis lupus familiaris
- Design: dose 10 mg/kg, route oral
- EXPERIMENTAL_PARAMETERS: plasma
PROPERTY: AUC

• Cc1ccc(N2CCN(C(=O)[C@H](C)Cc3ccc(Cl)cc3)CC2)c([C@@H](NC(=O)CCN(C)C)C(C)C)c1 = 2860 ng·h/mL

----------
Reported values of Tmax for individual entries
- ASSAY_PROTOCOL: Tmax in rat at 2.5 mg/kg, iv or 10 mg/kg, po
- Assay type: ADME, organism-based
- EXPERIMENTAL_PARAMETERS: in vivo
PROPERTY: Tmax (h)

* Cc1ccc(N2CCN(C(=O)[C@H](C)Cc3ccc(Cl)cc3C)CC2)c([C@@H](NC(=O)CCN(C)C)C(C)C)c1 | 4
* CNCCC(=O)N[C@H](c1cc(C)ccc1N1CCN(C(=O)[C@H](C)Cc2ccc(Cl)cc2)CC1)C(C)C | 3.3
* CNCCN[C@H](c1cc(C)ccc1N1CCN(C(=O)[C@H](C)Cc2ccc(Cl)cc2F)CC1)C(C)C | 6
* Cc1ccc(N2CCN(C(=O)[C@H](C)Cc3ccc(Cl)cc3F)CC2)c([C@@H](NC(=O)CCN(C)C)C(C)C)c1 | 4.7
